B1: INTS3 (parent)
chain: EEITEESLEESVGKPLYLIFRNLC

- Variants of: B1
- assay.remarks: protein stability index of a GFP-peptide fusion (GPS, HEK-293T) (PSI 1-6); higher = more stable;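 further: lentivirally expressed fusions sorted by FACS into six bins by GFP to DsRed ratio, PSI derived from sequencing read proportions per bin multiplied by bin number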
- test.conditions: c terminus: a fixed tail appended
Class 1: protein stability index at least 3. Class -1: protein stability index below 3.

Field: example entries. Status: answers known.
1) S11A    -1
2) E1L    -1
3) E5G    -1

[Q] Is reported protein stability index greater than or equal to 3 here: K14P
[A] 1

[Q] Is reported protein stability index greater than or equal to 3 here: E2M
[A] -1

[Q] Is reported protein stability index greater than or equal to 3 here: I19K
[A] 1

Recorded values, source the supplement of paper PMC10567573.
